// reported GI50 for each item listed
# System: SNB-75 CNS
# Protocol Details: NCI tumour cell line growth inhibition, 48 h

Below, 4 compounds whose answers are already recorded.
Cc1cc(O)c(C2=NN(c3ccc(S(N)(=O)=O)cc3)C(c3ccc(Cl)cc3)C2)c(C)c1Cl (stereo not given)	10.9 µM
CCCCCC[C@H](C)Nc1nc2ccccc2c2occc12	14.8 µM
CN(C)c1nc2ccccc2c2c1c1c(n2Cc2ccccc2)-c2ccccc2C1=O	54.2 µM
Cc1c2cc(Cl)c3ccccc3c2c[n+]2ccccc12	2.31 µM

// below: GI50 requested for another compound
Which GI50 value is on record for CC(=O)[O-].[Mn+3].[O-]c1ccccc1C=NCCNCCN=Cc1ccccc1[O-] ?
> 100 µM

---

// reported TGI for each item listed
# Tested on: M14 melanoma
# Protocol Details: NCI tumour cell line growth inhibition, 48 h
Give just the number in µM; leave the unit off.

Below, 10 compounds whose answers are already recorded.
Cc1ccc(S(=O)(=O)c2nc(-c3ccccc3)oc2S(C)=O)cc1 (stereo not drawn)	3.25
O=c1[nH]c2ccccc2n1CCCN1CCC(n2c(=O)[nH]c3cc(Cl)ccc32)CC1	29.9
O=C(Oc1ccc(CO[N+](=O)[O-])cc1)c1ccccc1	0.271
COc1ccc2cc(CNCCCCCCNCc3ccc4cc(OC)ccc4c3)ccc2c1	0.315
COC(=O)C1=C(C(=O)OC)C2(C)C=CC1O2 (stereo not drawn)	32.5
O=C1c2c(O)cccc2-c2nn(CCNCCO)c3ccc(NCCNCCO)c1c23	2.02
O=C(Cc1ccc(Cl)c(Cl)c1)NCC1(N2CCCCC2)CCCCC1	34.4
Cc1cc(=O)[nH]c(NN2C(Cl)C(=O)C2c2ccc([N+](=O)[O-])cc2)n1 (stereo not drawn)	23
Cc1c2cc(Cl)c3ccccc3c2c[n+]2ccccc12	15.5
Cc1cc2c([nH]c3ccccc32)c(O)c1-c1c(C)cc2c([nH]c3ccccc32)c1O	29.8

// below: TGI requested for another compound
Which TGI value is on record for CC(C)Cc1ccc(C(C)CC2=CCC(CN(C)C)C2=O)cc1 (stereo not drawn) ?
17.2

---

# Test system: HL-60(TB) leukemia
# Protocol Details: NCI tumour cell line growth inhibition, 48 h
Metric Name: GI50

Below, 7 compounds whose answers are already recorded.
CSCCCNC(=O)c1ccc2c(c1)/C(=C/c1[nH]c(C)cc1C)C(=O)N2	2.54 µM
Cc1nn2c(/C=C3/C(=O)Nc4cc(Cl)ccc43)c(-c3ccccc3)nc2s1	> 100 µM
O=P1(S)OC[C@H]2O[C@@H]3[C@H](F)[C@@H]2OP(O)(=S)OC[C@H]2O[C@H]([C@H](F)[C@@H]2O1)n1cnc2c(ncnc21)NC/C=C/CNc1ncnc2c1ncn23 (stereo partly drawn)	0.365 µM
OCc1ccc(-c2cscc2-c2ccc(CO)o2)o1	> 100 µM
Cn1cc(-c2ccc3nnc(Sc4ccc5ncccc5c4)n3n2)cn1	> 100 µM
Cc1nc(Nc2ccccn2)sc1C(=O)/C=C/c1ccc(Cl)cc1	0.353 µM
O=c1/c(=C\c2ccc(F)cc2)sc2n1C(c1ccc(F)cc1)C1=C(N=2)c2ccc3ccccc3c2OCC1 (stereo not drawn)	> 100 µM

// below: GI50 requested for another compound
Which GI50 value is on record for COC(=O)COc1ccc(/C=C2/N=C(c3ccccc3)N(c3c(C)n(C)n(-c4ccccc4)c3=O)C2=O)cc1 ?
26.2 µM

---

# System: 786-0 renal
# Protocol Details: NCI tumour cell line growth inhibition, 48 h
Metric Name: TGI

Below, 6 compounds whose answers are already recorded.
CN(C)CCCNc1ccc2nnn3c4ccc(O)cc4c(=O)c1c23	16.9 µM
CCCSc1ccc2[nH]c(N3C(=O)/C(=C/c4ccccc4)N=C3c3ccccc3)cc2c1	> 50 µM
CC(C)OP(=O)(OC(C)C)/C(N)=N/Nc1ccc([N+](=O)[O-])cc1	> 100 µM
O=C1c2c(O)cccc2-c2nn(CCNCCO)c3ccc(NCCNCCO)c1c23	0.895 µM
C#Cc1nc2ccccc2c(=O)[nH]1	2.12 µM
COC(=O)C1C(=O)N(C)C(=O)N2CCCC12 (centres undefined)	> 100 µM

Which TGI value is on record for c1ccc(/C(=N/Nc2ccncn2)c2ccccn2)cc1 ?
> 100 µM

Repeat for the following compound: COC(=O)c1c2c(cc3c1CC1(Cc4cc5c(c(C(C)=O)c4C1)CCC5)C3)CCC2 (centres undefined)
> 100 µM

Repeat for the following compound: COc1ccc(/C(Cl)=C/c2cc(OC)ccc2OC)cc1
> 100 µM

Repeat for the following compound: Cn1cc(C2=C(c3cn(C)c4ccc(Cl)cc34)C(=O)NC2=O)c2ccccc21
16.9 µM

Repeat for the following compound: Cc1ccccc1N=C(N)Nc1ccccc1C
> 100 µM

Repeat for the following compound: CCOC(=O)c1cc2c([N+](=O)[O-])c(N)ccc2s1
> 100 µM

Repeat for the following compound: O=c1[nH]c2nc(NC3CCOCC3)ncc2cc1Oc1ccc(F)cc1F
> 25 µM

Repeat for the following compound: CN1CCc2c1nc(-c1ccc(Cl)cc1)c1c2N(C)CC1
> 100 µM

Repeat for the following compound: Cc1nc(Nc2cccnc2)sc1C(=O)/C=C/c1ccc(Cl)cc1
6.48 µM

---

# Test system: SN12C renal
# Protocol Details: NCI tumour cell line growth inhibition, 48 h
Metric Name: TGI

Below, 8 compounds whose answers are already recorded.
CC(C)OP(=O)(OC(C)C)/C(N)=N/Nc1ccc([N+](=O)[O-])cc1	> 100 µM
COc1ccc(CCn2c(=O)c3ccccc3n(C)c2=O)cc1	> 100 µM
COc1ccc(C(O)c2cc3c(N)c(C(=O)Nc4cccc(Cl)c4)sc3nc2C)cc1 (stereo not given)	> 72.7 µM
NNC(=O)C(=O)N/N=C1\CCC(=O)CC1C(=O)CCC(=O)Nc1ccc(Cl)cc1 (stereo not given)	> 100 µM
COc1ccc2[nH]c(O)c(/C=c3/cc4c(c(-c5ccc(F)c(OC)c5)n3)=Nc3ccccc3-4)c2c1	30.5 µM
COC(=O)CC(NC(=O)OCc1ccccc1)C(C(=O)OCc1ccccc1)C(C)(OC)OC (stereo not given)	> 100 µM
C=CCO/N=C(\OC(=O)c1ccc([N+](=O)[O-])cc1)c1ccccc1	> 100 µM
COc1cc(C2c3cc4c(cc3C3OC[C@@H]2C3CO)OCO4)cc(OC)c1OC (stereo not given in full)	> 100 µM

Which TGI value is on record for COc1ccc(Nc2ccc3ccccc3c2-c2c(O)ccc3ccccc23)cc1 ?
35.1 µM

Repeat for the following compound: O=C(Nc1ccccc1C(=O)NCc1ccccc1)/C(=C/c1ccccc1)NC(=O)c1ccccc1
> 100 µM

---

# System: A549 NSCLC
# Protocol Details: NCI tumour cell line growth inhibition, 48 h
// reported TGI for each item listed

Below, 4 compounds whose answers are already recorded.
O=c1c(-c2ccccc2)c(SCCO)n(-c2ccccc2)c(=S)n1-c1ccccc1	> 100 µM
C=C1CCC2(C#N)[C@H]3[C@H](CC[C@@H]2C)[C@@H](C)C[C@@H](CC(C)(C)NC(=O)CN2CCC2=O)[C@H]13 (stereo partly specified)	50.4 µM
NCC(O)CSCc1ccc(Cl)cc1 (stereo unspecified)	> 100 µM
Cc1cc2c([nH]c3ccccc32)c(O)c1-c1c(C)cc2c([nH]c3ccccc32)c1O	26.8 µM

Which TGI value is on record for C=CCOn1c(C=C)nc2ccc(C)cc21 ?
68.5 µM

Repeat for the following compound: N#Cc1cc2c(n(C3OC(CO)C(O)C(O)C3O)c1=S)CCCCCC2 (stereo unspecified)
> 100 µM

Repeat for the following compound: c1cncc(CNCc2cccnc2)c1
> 100 µM

Repeat for the following compound: Cc1cc(N(CCC#N)CCC#N)ccc1N=Nc1ccc(Br)cc1
> 45.9 µM

Repeat for the following compound: S=c1nc(N/N=C/c2ccco2)c2cn[nH]c2[nH]1
> 100 µM

Repeat for the following compound: COc1ccc2cc(CNCCCCCCNCc3ccc4cc(OC)ccc4c3)ccc2c1
3.44 µM

Repeat for the following compound: CC1CCSC(N(C(=O)N(C)c2ccccc2)c2ccccc2)=N1 (stereo unspecified)
> 100 µM

Repeat for the following compound: CCOC(=O)c1cc2c([N+](=O)[O-])c(N)ccc2s1
> 100 µM

Repeat for the following compound: O=C(O)c1ccccc1N=Cc1ccc(N(CCCl)CCCl)cc1
> 100 µM

---

# System: SK-MEL-2 melanoma
# Protocol Details: NCI tumour cell line growth inhibition, 48 h
Metric Name: TGI (µM)
Give just the number in µM; leave the unit off.

COc1ccc2[nH]c(O)c(/C=c3/cc4c(c(-c5ccc(F)c(OC)c5)n3)=Nc3ccccc3-4)c2c1	5.41
COc1ccc(C(SC2C(O)C(CO)OC2n2ccc(=O)[nH]c2=O)(c2ccccc2)c2ccc(OC)cc2)cc1 (stereo unspecified)	31.4
CCOC(=O)CCn1ncc(Cl)c(Cl)c1=O	26.4

Which TGI value is on record for O=C(c1cccs1)N1CCN(C(=O)c2cccs2)C1=S ?
28.3

Repeat for the following compound: CCCSc1ccc2[nH]c(N3C(=O)/C(=C/c4ccccc4)N=C3c3ccccc3)cc2c1
18

Repeat for the following compound: CC1=Cc2ccc(C)cc2C(=O)C1=O
52.9

Repeat for the following compound: Cc1cc2c([nH]c3ccccc32)c(O)c1-c1c(C)cc2c([nH]c3ccccc32)c1O
30.6

Repeat for the following compound: O=C1/C(=C/c2ccccc2)CN(C(=O)CCN2CCCC2)C/C1=C\c1ccccc1
8.41

Repeat for the following compound: Cc1c2cc(Cl)c3ccccc3c2c[n+]2ccccc12
11.5
